readoutType: pIC50
The value called pIC50 is obtained by taking minus log10 of the concentration in mol/L.

Query :: Give Histone acetyltransferase p300 (Homo sapiens) pIC50 for Nc1ccn(Cc2ccc(-c3cn(CCCC(=O)O)nn3)cc2)c(=O)n1
Result :: 6.25

Query :: Give Histone acetyltransferase p300 (Homo sapiens) pIC50 for Nc1ccn(Cc2ccc(-c3cn(CCCCCCC(=O)O)nn3)cc2)c(=O)n1
Result :: 6.02

Query :: Give Histone acetyltransferase p300 (Homo sapiens) pIC50 for CCOC(=O)CCCCCn1cc(-c2ccc(Cn3cnc(N)nc3=O)cc2)nn1
Result :: 6.28

Query :: Give Histone acetyltransferase p300 (Homo sapiens) pIC50 for CCOC(=O)CCCCCCn1cc(-c2ccc(Cn3cnc(N)nc3=O)cc2)nn1
Result :: 6.19

Query :: Give Histone acetyltransferase p300 (Homo sapiens) pIC50 for CCOC(=O)CCCCCCn1cc(-c2ccc(Cn3cc(F)c(N)nc3=O)cc2)nn1
Result :: 5.59

Query :: Give Histone acetyltransferase p300 (Homo sapiens) pIC50 for Nc1ccn(Cc2ccc(-c3cn(CCCCc4ccc(C(=O)O)cc4)nn3)cc2)c(=O)n1
Result :: 5.94

Query :: Give Histone acetyltransferase p300 (Homo sapiens) pIC50 for CCOC(=O)CCCCCn1cc(Cn2cc(F)c(N)nc2=O)nn1
Result :: 6.10

Query :: Give Histone acetyltransferase p300 (Homo sapiens) pIC50 for COC(=O)c1ccc(CCCCn2cc(-c3ccc(Cn4cnc(N)nc4=O)cc3)nn2)cc1
Result :: 6.44

Query :: Give Histone acetyltransferase p300 (Homo sapiens) pIC50 for CCOC(=O)CCCCCn1cc(Cn2cc(C)c(N)nc2=O)nn1
Result :: 5.96

Query :: Give Histone acetyltransferase p300 (Homo sapiens) pIC50 for CCOC(=O)CCCCCn1cc(Cn2cnc(N)nc2=O)nn1
Result :: 6.32

Query :: Give Histone acetyltransferase p300 (Homo sapiens) pIC50 for Nc1ccn(Cc2ccc(-c3cn(CCCCCC(=O)O)nn3)cc2)c(=O)n1
Result :: 5.39

Query :: Give Histone acetyltransferase p300 (Homo sapiens) pIC50 for Nc1nc(=O)n(Cc2ccc(-c3cn(CCCCc4ccc(C(=O)O)cc4)nn3)cc2)cc1F
Result :: 6.60

Query :: Give Histone acetyltransferase p300 (Homo sapiens) pIC50 for COC(=O)c1ccc(CCCCn2cc(-c3ccc(Cn4cc(C)c(N)nc4=O)cc3)nn2)cc1
Result :: 6.62

Query :: Give Histone acetyltransferase p300 (Homo sapiens) pIC50 for CCOC(=O)CCCCCn1cc(Cn2ccc(N)nc2=O)nn1
Result :: 5.11

Query :: Give Histone acetyltransferase p300 (Homo sapiens) pIC50 for COC(=O)c1ccc(CCCCn2cc(-c3ccc(Cn4cc(F)c(N)nc4=O)cc3)nn2)cc1
Result :: 6.43

Query :: Give Histone acetyltransferase p300 (Homo sapiens) pIC50 for CCOC(=O)CCCCCCn1cc(-c2ccc(Cn3cc(C)c(N)nc3=O)cc2)nn1
Result :: 6.11
